Tested on: Plasmodium falciparum chloroquine-resistant strain W2
Assay Text: microbe, parasite or virus in culture
Format: cell-based
Test Context: growth inhibition, chloroquine-resistant strain W2, 66 h incubation
Decide by Strain W2 IC50: equal to or exceeding 0.009 µg/mL means 1 (yes), less means 0 (no).

>>> label_value("CC(=O)O[C@H]1CC2C(C3CC[C@H](C(C)CCC(=O)O)[C@]31C)[C@H](OC(C)=O)C[C@@H]1CC3(CC[C@]21C)OOC1(CCC(c2ccccc2)CC1)OO3 (single isomer, unassigned) [Compound 1C49]")
"1 (yes)"
>>> label_value("COC(=O)CCC(C)[C@H]1CCC2C3C(C[C@H](OC(C)=O)[C@@]21C)[C@@]1(C)CCC2(C[C@H]1C[C@H]3OC(C)=O)OOC1(CCC(c3ccccc3)CC1)OO2 (single isomer, unassigned) [Compound 1B14b]")
"1 (yes)"
>>> label_value("CCNC(=O)CCC(C)[C@H]1CCC2C3C(C[C@H](OC(C)=O)[C@@]21C)[C@@]1(C)CCC2(C[C@H]1C[C@H]3OC(C)=O)OOC1(CCC(c3ccccc3)CC1)OO2 (single isomer, unassigned) [Compound 1C52]")
"1 (yes)"
>>> label_value("CCCNC(=O)CCC(C)[C@H]1CCC2C3C(C[C@H](OC(C)=O)[C@@]21C)[C@@]1(C)CCC2(C[C@H]1C[C@H]3OC(C)=O)OOC1(CCC(C)CC1)OO2 (stereo partly drawn) [24/1C33]")
"1 (yes)"
>>> label_value("CNC(=O)CCC(C)[C@H]1CCC2C3C(C[C@H](OC(C)=O)[C@@]21C)[C@@]1(C)CCC2(C[C@H]1C[C@H]3OC(C)=O)OOC1(CCC(c3ccccc3)CC1)OO2 (single isomer, unassigned) [Compound 1C46]")
"0 (no)"
>>> label_value("CCC1CCC2(CC1)OOC1(CC[C@]3(C)C4C[C@H](OC(C)=O)[C@@]5(C)C(CC[C@@H]5C(C)CCC(=O)OC)C4[C@H](OC(C)=O)C[C@@H]3C1)OO2 (single isomer, unassigned) [8j/1B13b]")
"1 (yes)"
>>> label_value("CCC1CCC2(CC1)OOC1(CC[C@]3(C)C4C[C@H](OC(C)=O)[C@@]5(C)C(CC[C@@H]5C(C)CCC(=O)O)C4[C@H](OC(C)=O)C[C@@H]3C1)OO2 (single isomer, unassigned)")
"1 (yes)"
>>> label_value("COC(=O)CCC(C)[C@H]1CCC2C3C(C[C@H](OC(C)=O)[C@@]21C)[C@@]1(C)CCC2(C[C@H]1C[C@H]3OC(C)=O)OOC1(CCC(C(C)(C)C)CC1)OO2 (single isomer, unassigned) [8l/1B09b]")
"1 (yes)"

Now examine the next entry.
QUERY: Decide: Strain W2 IC50 of COC(=O)CCC(C)[C@H]1CCC2C3C(C[C@H](OC(C)=O)[C@@]21C)[C@@]1(C)CCC2(C[C@H]1C[C@H]3OC(C)=O)OOC1(CCC(C)CC1)OO2 (mixture of isomers) [8h/1B08b] >= 0.009 µg/mL?
RESULT: 0 (no)

----------
Test system: Plasmodium falciparum chloroquine-resistant strain W2
Assay Text: microbe, parasite or virus in culture
Format: cell-based
Test Context: growth inhibition, chloroquine-resistant strain W2, 66 h incubation
Decide by Strain W2 IC50: equal to or exceeding 10 ng/mL means YES, less means NO.

Below are worked cases with known answers.
>>> label_value("CCNC(=O)CCC(C)[C@H]1CCC2C3C(C[C@H](OC(C)=O)[C@@]21C)[C@@]1(C)CCC2(C[C@H]1C[C@H]3OC(C)=O)OOC1(CCC(C)CC1)OO2 (some centres unmarked) [19/1C28]")
"NO"
>>> label_value("CC(=O)O[C@H]1CC2C(C3CC[C@H](C(C)CCC(N)=O)[C@]31C)[C@H](OC(C)=O)C[C@@H]1CC3(CC[C@]21C)OOC1(CCC(c2ccccc2)CC1)OO3 (single isomer, unassigned) [Compound 1C50]")
"YES"
>>> label_value("CC(=O)O[C@H]1CC2C(C3CC[C@H](C(C)CCC(=O)O)[C@]31C)[C@H](OC(C)=O)C[C@@H]1CC3(CC[C@]21C)OOC1(CCC(C)CC1)OO3 (some centres unmarked) [9h/1C18]")
"YES"
>>> label_value("CCCNC(=O)CCC(C)[C@H]1CCC2C3C(C[C@H](OC(C)=O)[C@@]21C)[C@@]1(C)CCC2(C[C@H]1C[C@H]3OC(C)=O)OOC1(CCC(c3ccccc3)CC1)OO2 (single isomer, unassigned) [Compound 1C53]")
"YES"

QUERY: Decide: Strain W2 IC50 of CC(=O)O[C@H]1CC2C(C3CC[C@H](C(C)CCC(=O)O)[C@]31C)[C@H](OC(C)=O)C[C@@H]1CC3(CC[C@]21C)OOC1(CCC(c2ccccc2)CC1)OO3 (single isomer, unassigned) [Compound 1C44] >= 10 ng/mL?
RESULT: NO
